Tested on: MS2 coat protein
assay: apparent KD of MS2 coat protein; designed switch direction (-1 OFF switch, 1 ON switch): -1; higher = weaker reporter binding
applied-conditions: Eterna round: R95; input ligand: microRNA oligo, concentration not stated
Quick rule: apparent KD of MS2 coat protein of at least 50 nM means 1.0, below that means 0.0.

>>> category_label("UUUUACAUAGGAUAUAGUUUGUUGUACAUGAGGAUCACCCAUGUUUUUGUUUGUGCUUUUCUAGAAGGAUGUUUCU [JR_E5_Sub016] (puzzle: Exclusion 5)")
0.0
>>> category_label("UAUACUAGAUAGGAUAUACUAUAUAAAUAAUUCGUAGAAGGAUCUACAUGAGGAUCACCCAUGUUAACAGCAGU [JR_E6_Sub005] (puzzle: Exclusion 6)")
0.0
>>> category_label("AUAUAAACAUAGGAUAUCGAAUUUAUCAUUUAACGAGAAGGAUGAACAUGAGGAUCACCCAUGUGGUAUCAUGG [Mat - Exclusion 6 - JL Mod - D5] (puzzle: Exclusion 6)")
1.0
>>> category_label("CGUGACUCAGGAUAUCUAUGAUAUCACAUGAGGAUCACCCAUGUCCAGCAAUAGCUGGAGGGAGAAGGGAGUCACG [Fiskers Ex 5 - 41] (puzzle: Exclusion 5)")
1.0
>>> category_label("ACAGCGUGAGGAUAUACAUGAGGAUCACCCAUGUGUGGCAGGUUAUCCUGUCAUGAGUGUAGAAGGCACGCUGU [Exclusion 3 - Oddities v.7 ( A small slide from ms2 to fmn)] (puzzle: Exclusion 3)")
0.0
